- assayed.target: HLA-A*02:12
- assay.comment: IEDB peptide-MHC binding, purified MHC/competitive/fluorescence; filed as Kd, often an IC50 or EC50 that approximates it; bounds were set here for any values at or beyond the usual limits of such assays
- study.conditions: source organism: Plasmodium yoelii yoelii
pKd: −log10 of the molar value.
observation.type: pKd

Please fill in: pKd reported for `KPPRGVLLY` = ≤ 4.70

----------
- assayed.target: HLA-B*18:01
- assay.comment: IEDB peptide-MHC binding, purified MHC/direct/fluorescence; filed as Kd, often an IC50 or EC50 that approximates it; bounds were set here for any values at or beyond the usual limits of such assays
- study.conditions: source organism: Influenza A virus (A/camel/Mongolia/1982(H1N1))
observation.type: Kd

Please fill in: Kd reported for `KFFPSSSYR` = ≥ 20 µM

----------
- assayed.target: HLA-B*44:03
- assay.comment: IEDB peptide-MHC binding, purified MHC/competitive/radioactivity; filed as Kd, often an IC50 or EC50 that approximates it; bounds were set here for any values at or beyond the usual limits of such assays
- study.conditions: source organism: Dengue virus 4 Philippines/H241/1956
observation.type: Kd (nM)
Return type: number; implicit unit nM.

Please fill in: Kd reported for `ADTGCAVSW` = 224

----------
- assayed.target: HLA-A*03:01
- assay.comment: IEDB peptide-MHC binding, purified MHC/direct/fluorescence; filed as Kd, often an IC50 or EC50 that approximates it; bounds were set here for any values at or beyond the usual limits of such assays
- study.conditions: source organism: Salmonella enterica subsp. enterica serovar Typhi
observation.type: Kd

Please fill in: Kd reported for `LPLIVDTAA` = ≥ 20 µM

----------
- assayed.target: HLA-B*40:01
- assay.comment: IEDB peptide-MHC binding, purified MHC/direct/fluorescence; filed as Kd, often an IC50 or EC50 that approximates it; bounds were set here for any values at or beyond the usual limits of such assays
- study.conditions: source organism: Salmonella enterica subsp. enterica serovar Typhi
observation.type: Kd

Please fill in: Kd reported for `LPLIVDTAA` = ≥ 20 µM

----------
- assayed.target: HLA-B*39:01
- assay.comment: IEDB peptide-MHC binding, purified MHC/competitive/fluorescence; filed as Kd, often an IC50 or EC50 that approximates it; bounds were set here for any values at or beyond the usual limits of such assays
- study.conditions: source organism: Four Corners hantavirus
observation.type: Kd

Please fill in: Kd reported for `KARNIISPV` = ≥ 20 µM

----------
- assayed.target: HLA-A*01:01
- assay.comment: IEDB peptide-MHC binding, purified MHC/direct/fluorescence; filed as Kd, often an IC50 or EC50 that approximates it; bounds were set here for any values at or beyond the usual limits of such assays
- study.conditions: source organism: Homo sapiens
observation.type: pKd
# reply with the number alone; pKd is -log10 of concentration in mol/L

Please fill in: pKd reported for `SSECQGEML` = 5.32

----------
- assayed.target: HLA-A*11:01
- assay.comment: IEDB peptide-MHC binding, purified MHC/competitive/fluorescence; bounds were set here for any values at or beyond the usual limits of such assays
- study.conditions: source organism: Variola virus
pIC50: −log10 of the molar value.
List of pIC50 values.

{"sequence.input": "ISKSMRDQR", "assayed.target": "HLA-A*11:01", "observation.type": "pIC50", "reading": 4.63}
{"sequence.input": "FGGFSTLDK", "assayed.target": "HLA-A*11:01", "observation.type": "pIC50", "reading": "≤ 4.11"}

// sequence `IHIPGDTLF` , assay HLA-A*11:01, pIC50 value: ≤ 3.82
